# target of assay: GSK3α (GST-full length GSK3α) (Homo sapiens (Human))
# Sequence (P49840 whole entry): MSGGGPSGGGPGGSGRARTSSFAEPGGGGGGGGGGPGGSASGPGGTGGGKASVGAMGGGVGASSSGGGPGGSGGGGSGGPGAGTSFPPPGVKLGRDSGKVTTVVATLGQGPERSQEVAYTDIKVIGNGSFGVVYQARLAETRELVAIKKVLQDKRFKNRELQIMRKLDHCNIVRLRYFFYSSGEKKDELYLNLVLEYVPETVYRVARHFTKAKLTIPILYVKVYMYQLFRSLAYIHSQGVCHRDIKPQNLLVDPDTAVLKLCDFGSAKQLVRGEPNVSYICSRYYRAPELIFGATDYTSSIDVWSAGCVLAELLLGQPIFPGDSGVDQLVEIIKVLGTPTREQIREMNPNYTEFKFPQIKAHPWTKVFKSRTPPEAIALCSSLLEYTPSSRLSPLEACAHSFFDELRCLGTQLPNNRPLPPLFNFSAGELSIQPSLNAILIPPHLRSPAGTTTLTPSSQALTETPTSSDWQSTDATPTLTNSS
# test name: GSK3α TR-FRET kinase assay
# Type: biochemical
# experimental conditions: 1 nM GSK3α, 4 μM ATP, 30 minute preincubation; geometric mean; read-out: GSK3-A TR-FRET BIOCHEMICAL (TR-FRET); GMean; IC50
pIC50: −log10 of the molar value.
observable: pIC50

Solved cases below.
CC[C@]1(c2cccc(S(C)(=O)=O)c2)C2=C(CC(C)(C)CC2=O)Nc2n[nH]cc21	5.30 to 6.00
CCC1(c2cccc(N3CCCCC3)c2)C2=C(CC(C)(C)CC2=O)Nc2n[nH]cc21 (stereo not drawn)	6.00 to 7.00
CC[C@@]1(c2ccccc2)C2=C(C[C@]3(CCOC3)CC2=O)Nc2n[nH]cc21	< 5.30

The reported pIC50 value, GSK3α (GST-full length GSK3α) (Homo sapiens (Human)), for CC[C@@]1(c2cccc(-c3ccncc3C3CC3)c2)C2=C(CC(C)(C)NC2=O)Nc2n[nH]cc21 reads 6.00 to 7.00

# value of pIC50, GSK3α (GST-full length GSK3α) (Homo sapiens (Human)), item CCC1(c2cccc(Br)c2)C2=C(CC(C)(C)CC2=O)Nc2n[nH]cc21 (stereo not drawn) [Compound 790733] = ≥ 7.00

Item CCC1(c2cccc(N3CCOCC3)c2)C2=C(CC(C)(C)CC2=O)Nc2n[nH]c(C(F)(F)F)c21 (stereo not drawn) [Compound 810507] ; assay system GSK3α (GST-full length GSK3α) (Homo sapiens (Human)); pIC50 reported as ≥ 7.00

Record CC[C@@]1(c2cccc(-c3ccnc(C)c3)c2)C2=C(CC(C)(C)NC2=O)Nc2n[nH]c(F)c21 ; system GSK3α (GST-full length GSK3α) (Homo sapiens (Human)); pIC50 = ≥ 7.00
